# credit: ChEMBL document CHEMBL1201862

system: SW-620; test: NCI tumour cell line growth inhibition, 48 h
Calls of active or inactive are those of the source. Rule as the data show it: active = GI50 up to about 1.1 µM and inactive = higher.
Pick one and only one: t for active, f for inactive

Below are worked cases with known answers.
{"Compound": "O=C(COc1ccc(OCC(=O)N2C(=O)CN(c3ccc(Cl)cc3)C2=S)cc1)N1C(=O)CN(c2ccc(Cl)cc2)C1=S", "Cat": "f"}
{"Compound": "C/C(=N\\Nc1nc2ccccc2s1)c1cc(C)ncn1", "Cat": "t"}
{"Compound": "Cc1nnc(CC#N)n1NC(=O)CC#N", "Cat": "f"}
{"Compound": "COC1CC(OS(=O)(=O)c2ccc(C)cc2)C(OS(=O)(=O)c2ccc(C)cc2)C(COS(=O)(=O)c2ccc(C)cc2)O1 (stereo not drawn)", "Cat": "f"}
{"Compound": "CCCCn1c2ccccc2c2ccc3c(c21)C(=O)C=CC3=O", "Cat": "f"}
{"Compound": "O=S(=O)(O)CS(=O)(=O)OCCCl", "Cat": "f"}

Query string: Status in this test for `CC(C)(C)[Si](C)(C)OCCCC#CCO` ?
Result string: f

Query string: Check CSCCC(NCc1c(O)ccc2c(-c3ccccc3)cc(=O)oc12)C(=O)O (stereo not drawn) too.
Result string: f

Query string: Check `O=C(/N=C1\SCCN1C(=O)C(C(F)(F)F)C(F)(F)F)C(C(F)(F)F)C(F)(F)F` too.
Result string: f

Query string: Check `CC1=NN(c2ccccc2)C(=O)/C1=C\c1c(C)[nH]n(-c2ccccc2)c1=O` too.
Result string: f

----------
test system: HOP-18; experiment: NCI tumour cell line growth inhibition, 48 h
Activity calls are given as the source filed them. Cut-off read from the data, not from the text of the source: active = GI50 up to about 1.1 µM and inactive = higher.
Recorded endpoint: GI50

Consider the reported GI50 for these compounds:
{"Compound": "CC(=O)CC(=O)CCCC(=O)Nc1ccc(Cl)cc1C", "GI50": "> 100 µM (inactive)"}
{"Compound": "Cc1ccc(N2C(=O)CS/C2=C(\\C#N)c2nc3ccccc3[nH]2)cc1", "GI50": "> 100 µM (inactive)"}
{"Compound": "COc1ccc2c(C(=O)O)cc3cc(OC)c(OC)cc3c2c1", "GI50": "> 100 µM (inactive)"}
{"Compound": "Cc1ccc2c(c1)C1(C)OC(CC(N)C1O)O2 (stereo not drawn)", "GI50": "> 100 µM (inactive)"}
{"Compound": "CC(C)[C@](O)(C(=O)OCC1CC[N+]2([O-])CC[C@@H](O)C12)[C@H](C)O (stereo partly drawn)", "GI50": "105 µM (inactive)"}

Look at each compound and report its GI50.
1. CC#C[C@@]1(O)CCCCC1O (stereo partly drawn)
2. COc1cccc2c1[C@H]1CO[C@H]3C4C[C@H](C(=O)O)C([C@@H](C2)N13)N4C (stereo partly drawn)
3. C=CCn1c(=O)c(C(=O)NC(=O)OCC)cn(C2CCCCC2)c1=O
4. C/C(=N\NC(=[Se])N(C)C)c1ccccn1
5. COc1ccc(Cc2c(=O)[nH]nc3ccccc23)cc1
6. CC1=CC(O)C(O)C2(C)C1CC1OC(=O)C(O)C3C(C)C(O)C4(O)OCC13C42 (stereo not drawn)
7. CC(C)N(C(=O)C12C3C4C5(C#N)C3C1(I)C5C42I)C(C)C (stereo not drawn)

Result string:
> 100 µM (inactive)
6.12 µM (inactive)
> 100 µM (inactive)
2.1 µM (inactive)
> 100 µM (inactive)
155 µM (inactive)
97.5 µM (inactive)

Look at each compound and report its GI50.
1. COC(=O)C(C#CCCCCC#CC(NC(=O)OCc1ccccc1)(C(=O)OC)C(F)(F)F)(NC(=O)OCc1ccccc1)C(F)(F)F (stereo not drawn)
2. CCOC(=O)C12C(C(=O)OC)=C(C)N(NC(=O)Nc3ccccc3)C1(N)N(NC(=O)Nc1ccccc1)C(C)=C2C(=O)OC (stereo not drawn)
3. Clc1ccc(C2SCc3nc4ccccc4n32)cc1 (stereo not drawn)
4. COc1ccc(Br)c(CCCCC(=O)O)c1
5. COC(=O)Cc1cc(=O)[nH]c2c1C(=O)CCC2
6. COc1ccc(/C(Cl)=C/c2ccc(Cl)c(Cl)c2)cc1

Result string:
["> 100 µM (inactive)", "32.9 µM (inactive)", "23.3 µM (inactive)", "> 100 µM (inactive)", "> 100 µM (inactive)", "16.5 µM (inactive)"]
